Provide the reported kon of each item.
molecular target: Recombinant human his-tagged IGF 1R extracellular domain protein (human) (UniProt P08069); experiment: SPR, captured antibody, dissociation at pH 6
Put down the number, then write its unit next to it.

Request: Need kon, item VRDN-03049 (antibody, V domains shown) VH: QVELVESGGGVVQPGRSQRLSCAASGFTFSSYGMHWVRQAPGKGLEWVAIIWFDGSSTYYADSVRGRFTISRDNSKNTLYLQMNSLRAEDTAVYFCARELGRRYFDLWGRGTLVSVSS VL: EIVLTQSPATLSLSPGERATLSCRASQSVSSYLAWYQQKPGQAPRLLIYHASKRATGIPARFSGSGSGTDFTLTISSLEPEDFAVYYCQQRSKWPPWTFGQGTKVESK
Response: 74300 M⁻¹ s⁻¹

Request: Which kon value is on record for VRDN-03108 (antibody, V domains shown) VH: QVQLVESGGGVVQPGRSLRLSCAASGFTFSSYSMHWVRQAPGKGLEWVAIIWFDGSSKYYVDSVKGRFTISRDNSKNTLYLQMNSLRAEDTAVYYCARELGRRYFDIWGRGTLVTVSS VL: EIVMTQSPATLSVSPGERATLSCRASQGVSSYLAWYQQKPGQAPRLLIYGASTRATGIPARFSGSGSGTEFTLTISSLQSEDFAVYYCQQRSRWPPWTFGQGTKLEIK ?
Response: 224000 M⁻¹ s⁻¹

Request: Quick one: kon of VRDN-03113 (antibody, V domains shown) VH: QVQLVESGGGVVQPGRSLRLSCAASGFTFSDHYMDWVRQAPGKGLEWVAIIWFDGSSKYYADSVKGRFTISRDNSKNTLYLQMNSLRAEDTAVYYCARELGRRYFDIWGRGTLVTVSS VL: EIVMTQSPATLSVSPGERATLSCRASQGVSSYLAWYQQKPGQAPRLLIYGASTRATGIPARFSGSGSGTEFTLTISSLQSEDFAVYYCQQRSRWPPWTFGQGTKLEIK ?
Response: 771000 M⁻¹ s⁻¹

Request: For the binder VRDN-03112 (antibody, V domains shown) VH: QVQLVESGGGVVQPGRSLRLSCAASGFTFSDYTMHWVRQAPGKGLEWVAIIWFDGSSKYYPGSVKGRFTISRDNSKNTLYLQMNSLRAEDTAVYYCARELGRRYFDIWGRGTLVTVSS VL: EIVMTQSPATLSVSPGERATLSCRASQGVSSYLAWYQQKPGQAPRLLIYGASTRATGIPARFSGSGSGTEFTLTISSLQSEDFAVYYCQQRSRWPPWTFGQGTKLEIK , what kon is on record?
Response: 169000 M⁻¹ s⁻¹
